All figures here come from ChEMBL document CHEMBL1155400.

# experiment_notes: Inhibition of Varicella zoster virus recombinant DNA polymerase expressed in baculovirus infected SF9 cells after 12 mins by scintillation proximity assay
# Parameters: species or system Human alphaherpesvirus 3
measured_parameter: pIC50
Notebook: values listed as pIC50 are -log10 of the concentration (mol/L).

CN(Cc1cc2c3c(c1)c(=O)c(C(=O)NCc1ccc(Cl)cc1)cn3CC(=O)N2C)C[C@@H](O)c1cc2ccccc2o1 | 7.54

For the next question, use this compound.
Enquiry: Tell me its pIC50 given CN1C(=O)Cn2cc(C(=O)NCc3ccc(Cl)cc3)c(=O)c3cc(CN4CCOCC4)cc1c32 as the entry.
Return: 6.74

----------
# Test system: Human betaherpesvirus 5
# experiment_notes: Antiviral activity against Human cytomegalovirus infected in HFF cells by plaque reduction assay
# Format: functional, organism-based
# settings: Human betaherpesvirus 5, HFF
Let's look at some compounds and their measured pIC50.
The meaning of pIC50 here: minus log10 of the concentration in molar units.

As a guide, the following entries are already answered.
Nc1nc2c(ncn2COCCO)c(=O)[nH]1 | 4.70
CN(Cc1cc2c3c(c1)c(=O)c(C(=O)NCc1ccc(Cl)cc1)cn3CC(=O)N2C)C[C@@H](O)c1cccnc1 | 8.00
CN(Cc1cc2c3c(c1)c(=O)c(C(=O)NCc1ccc(Cl)cc1)cn3CC(=O)N2C)C[C@@H](O)c1cnccn1 | 6.70
Cn1cc(C(=O)NCc2ccc(Cl)cc2)c(=O)c2cc(CCCO)sc21 | 6.22
CN(Cc1cc2cc(CCO)n3cc(C(=O)NCc4ccc(Cl)cc4)c(=O)c(c1)c23)C[C@@H](O)c1cnccn1 | 8.00

Enquiry: Give the reported pIC50 for this compound. CN(Cc1cc2c(=O)c(C(=O)NCc3ccc(Cl)cc3)cn(C)c2s1)C[C@@H](O)c1ccco1
Return: 8.15

----------
# experiment_notes: Aqueous solubility of the compound
# Assay type: physicochemical
Reported solubility is given for each of the following molecules.
Number in µg/mL, nothing else.

CN(Cc1cc2c(=O)c(C(=O)NCc3ccc(Cl)cc3)cn(C)c2s1)C[C@@H](O)c1ccco1 | 0.19

Enquiry: Indicate its recorded solubility; the molecule in question is CN(Cc1cc2c3c(c1)c(=O)c(C(=O)NCc1ccc(Cl)cc1)cn3CC(=O)N2C)C[C@@H](O)c1cc2ccccc2o1
Return: 0.94

Enquiry: For the molecule CN1C(=O)Cn2cc(C(=O)NCc3ccc(Cl)cc3)c(=O)c3cc(CN4CCOCC4)cc1c32 , give its measured solubility value.
Return: 8.6

Enquiry: Could you please provide reported solubility for CN(Cc1cc2cc(CCO)n3cc(C(=O)NCc4ccc(Cl)cc4)c(=O)c(c1)c23)C[C@@H](O)c1cnccn1 ? Thanks!
Return: 17

----------
# Tested on: Human betaherpesvirus 5
# experiment_notes: Antiviral activity against Human cytomegalovirus infected in HFF cells by plaque reduction assay
# Format: functional, organism-based
# settings: Human betaherpesvirus 5, HFF
measured_parameter: IC50 (nM)
Provide only the numeric value, understood in nM.

The examples below pair each entry with its known result.
CN(Cc1cc2c3c(c1)c(=O)c(C(=O)NCc1ccc(Cl)cc1)cn3CC(=O)N2C)C[C@@H](O)c1nccs1 | 100
CN(Cc1cc2c(=O)c(C(=O)NCc3ccc(Cl)cc3)cn(C)c2o1)C[C@@H](O)c1ccco1 | 26
O=C(NCc1ccc(Cl)cc1)c1cn2c3c(cc(CN4CCOCC4)cc3c1=O)N(CCO)C(=O)C2 | 700

Enquiry: Tell me IC50 reported for CN(Cc1cc2c3c(c1)c(=O)c(C(=O)NCc1ccc(Cl)cc1)cn3CC(=O)N2C)CC(O)c1csc2ccccc12 (racemic)
Return: 100

----------
# System: Human betaherpesvirus 5
# experiment_notes: Antiviral activity against Human cytomegalovirus infected in HFF cells by plaque reduction assay
# Format: functional, organism-based
# settings: Human betaherpesvirus 5, HFF
Quick list: log10(IC50) per entry.
Kindly note that the scale is log10 and the underlying IC50 is in nM.

Solved entries:
CN(Cc1cc2c3c(c1)c(=O)c(C(=O)NCc1ccc(Cl)cc1)cn3CC(=O)N2C)C[C@@H](O)c1ccsc1 | 2.00
CN(Cc1cc2c3c(c1)c(=O)c(C(=O)NCc1ccc(Cl)cc1)cn3CC(=O)N2C)C[C@H](O)c1cc2ccccc2o1 | 1.95
CN(Cc1cc2c3c(c1)c(=O)c(C(=O)NCc1ccc(Cl)cc1)cn3CC(=O)N2C)C[C@@H](O)c1ccccn1 | 1.30
Cn1cc(C(=O)NCc2ccc(Cl)cc2)c(=O)c2cc(CN3CCOCC3)ccc21 | 2.48
CN(Cc1cc2c3c(c1)c(=O)c(C(=O)NCc1ccc(Cl)cc1)cn3CC(=O)N2C)C[C@@H](O)c1ccccc1 | 2.00
CN(Cc1cc2c3c(c1)c(=O)c(C(=O)NCc1ccc(Cl)cc1)cn3CC(=O)N2C)C[C@@H](O)c1cc2ccccc2o1 | 0.00
CN(Cc1cc2c3c(c1)c(=O)c(C(=O)NCc1ccc(Cl)cc1)cn3CC(=O)N2C)C[C@@H](O)c1ccco1 | 1.00

Consider the record given below.
Enquiry: State log10(IC50) on Human betaherpesvirus 5. Entry: CN1C(=O)Cn2cc(C(=O)NCc3ccc(Cl)cc3)c(=O)c3cc(CN4CCOCC4)cc1c32
Return: 2.00
